# Study system: T1, recombinant human CD3ε-CD3δ heterodimeric protein (CD3εδ) (Homo sapiens)
# T1 construct: human CD3ε of the recombinant CD3εδ heterodimer; human CD3δ of the recombinant CD3εδ heterodimer; source: in-house prepared
# T1 chain 1: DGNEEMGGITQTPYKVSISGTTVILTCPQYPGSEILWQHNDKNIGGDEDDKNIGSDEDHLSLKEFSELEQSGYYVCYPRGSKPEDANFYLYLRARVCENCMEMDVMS
# T1 chain 2: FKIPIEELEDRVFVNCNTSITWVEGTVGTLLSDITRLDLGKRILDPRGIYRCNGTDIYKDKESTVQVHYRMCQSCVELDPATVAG
# Test description: SPR; Biacore T200, 37 °C, pH 7.4, PB-P+; antibody captured (630 RU) by anti-mouse IgG (Fc) antibody on a CM4 chip; human CD3εδ as analyte, 1.2-4800 nmol/L; 1:1 binding model (mUCHT1, mSP34)
# Experimental context: both partners purified
Assay readout: pKd
pKd here is simply -log10 of the concentration when that concentration is written in mol/L.

Completed entries (count: 2):
{"Binder": "mUCHT1 mIgG1, homodimeric antibody without FAST-Ig mutations (antibody, V domains shown, VH of the original mouse antibody mUCHT1; mouse IgG1 (mIgG1) heavy chain constant region; numbers count on: Eu numbering; VL of the original mouse antibody mUCHT1; mouse kappa light chain constant region (CL); Whole IgG of one HC and one LC; also called anti-CD3; H2L2H2L2; source: Expi293F, transiently expressed, purified (Ab-Capcher MAG2 or MonoSpin ProG); copies: 2 + 2) VH: EVQLQQSGPELVKPGASMKISCKASGYSFTGYTMNWVKQSHGKNLEWMGLINPYKGVSTYNQKFKDKATLTVDKSSSTAYMELLSLTSEDSAVYYCARSGYYGDSDWYFDVWGQGTTLTVFS VL: DIQMTQTTSSLSASLGDRVTISCRASQDIRNYLNWYQQKPDGTVKLLIYYTSRLHSGVPSKFSGSGSGTDYSLTISNLEQEDIATYFCQQGNTLPWTFAGGTKLEIK", "Endpoint result": 8.84}
{"Binder": "mUCHT1 mIgG1 V1+C19, homodimeric antibody with FAST-Ig V1+C19 mutations (antibody, V domains shown, VH of mUCHT1; mouse IgG1 (mIgG1) heavy chain constant region; numbers count on: Eu numbering; VL of mUCHT1; mouse kappa light chain constant region (CL); numbers count on: Kabat numbering; Whole IgG of one HC and one LC; also called anti-CD3; H2L2H2L2; source: Expi293F, transiently expressed, purified (Ab-Capcher MAG2 or MonoSpin ProG); copies: 2 + 2) VH: EVQLQQSGPELVKPGASMKISCKASGYSFTGYTMNWVKESHGKNLEWMGLINPYKGVSTYNQKFKDKATLTVDKSSSTAYMELLSLTSEDSAVYYCARSGYYGDSDWYFDVWGQGTTLTVFS VL: DIQMTQTTSSLSASLGDRVTISCRASQDIRNYLNWYQKKPDGTVKLLIYYTSRLHSGVPSKFSGSGSGTDYSLTISNLEQEDIATYFCQQGNTLPWTFAGGTKLEIK", "Endpoint result": 8.88}

Continue with the binder presented below.
Q. Could you please provide reported pKd for mUCHT1 mIgG2a, homodimeric antibody without FAST-Ig mutations (antibody, V domains shown, VH of the original mouse antibody mUCHT1; mouse IgG2a (mIgG2a) heavy chain constant region; numbers count on: Eu numbering; VL of the original mouse antibody mUCHT1; mouse kappa light chain constant region (CL); Whole IgG of one HC and one LC; also called anti-CD3; H2L2H2L2; source: Expi293F, transiently expressed, purified (Ab-Capcher MAG2, MonoSpin ProA or MonoSpin ProG); copies: 2 + 2) VH: EVQLQQSGPELVKPGASMKISCKASGYSFTGYTMNWVKQSHGKNLEWMGLINPYKGVSTYNQKFKDKATLTVDKSSSTAYMELLSLTSEDSAVYYCARSGYYGDSDWYFDVWGQGTTLTVFS VL: DIQMTQTTSSLSASLGDRVTISCRASQDIRNYLNWYQQKPDGTVKLLIYYTSRLHSGVPSKFSGSGSGTDYSLTISNLEQEDIATYFCQQGNTLPWTFAGGTKLEIK ? Thanks!
A. 8.99
